tested on: P12-Ichikawa; assay: cell viability relative to DMSO control; higher = less cytotoxic; settings: RPMI 5 mM glucose + 10% FBS; 48 h; 0.00234 µM
cell viability values by entry
Give the value in % but do not write % after it.

Some molecules with recorded cell viability:
• Cc1cc(OCCCc2c(C(=O)O)n(Cc3cccnc3)c3c(-c4c(COc5ccc(N6CCN([S+](C)(=O)[O-])CC6)cc5)nn(C)c4C)cccc23)cc(C)c1Cl = 102
• COc1ccc(Cc2ccc(NC(N)=O)cc2)cc1-c1cccc(Cl)c1 = 134
• CC(C)[C@@H](N(CCCN)C(=O)C1=CC=C(C)C=C1)C/2=N/C3=CC(=CC=C3C(=O)N2CC4=CC=CC=C4)Cl = 12.6
• CCc1cc(Nc2nccc(-c3c(-c4ccc(OC)c(C(=O)Nc5c(F)cccc5F)c4)nc4ccccn34)n2)c(OC)cc1N1CCC(N2CCN([S+](C)(=O)[O-])CC2)CC1 = 101

query: I would be grateful if you could share the reported cell viability for `CN(C)c1ccc(O)c2c1C[C@H]1C[C@H]3[C@H](N(C)C)C(O)=C(C(N)=O)C(=O)[C@@]3(O)C(O)=C1C2=O` .
result: 110

query: I would be grateful if you could share the reported cell viability for CNC1CCC(N(Cc2cccc(-c3ccncc3)c2)C(=O)c2sc3ccccc3c2Cl)CC1 (stereo not drawn) .
result: 92.9

query: I would be grateful if you could share the reported cell viability for `CC(=O)Oc1ccccc1C(=O)O` .
result: 101

query: I would be grateful if you could share the reported cell viability for CN1[C@@H]2CC(OC(=O)[C@@H](CO)c3ccccc3)C[C@H]1[C@H]1O[C@H]12 (stereo partly drawn) .
result: 100
